# EXPERIMENTAL_SYSTEM: p110δ/p85α (Homo sapiens, UniProt O00329)
# Sequence (O00329 whole entry): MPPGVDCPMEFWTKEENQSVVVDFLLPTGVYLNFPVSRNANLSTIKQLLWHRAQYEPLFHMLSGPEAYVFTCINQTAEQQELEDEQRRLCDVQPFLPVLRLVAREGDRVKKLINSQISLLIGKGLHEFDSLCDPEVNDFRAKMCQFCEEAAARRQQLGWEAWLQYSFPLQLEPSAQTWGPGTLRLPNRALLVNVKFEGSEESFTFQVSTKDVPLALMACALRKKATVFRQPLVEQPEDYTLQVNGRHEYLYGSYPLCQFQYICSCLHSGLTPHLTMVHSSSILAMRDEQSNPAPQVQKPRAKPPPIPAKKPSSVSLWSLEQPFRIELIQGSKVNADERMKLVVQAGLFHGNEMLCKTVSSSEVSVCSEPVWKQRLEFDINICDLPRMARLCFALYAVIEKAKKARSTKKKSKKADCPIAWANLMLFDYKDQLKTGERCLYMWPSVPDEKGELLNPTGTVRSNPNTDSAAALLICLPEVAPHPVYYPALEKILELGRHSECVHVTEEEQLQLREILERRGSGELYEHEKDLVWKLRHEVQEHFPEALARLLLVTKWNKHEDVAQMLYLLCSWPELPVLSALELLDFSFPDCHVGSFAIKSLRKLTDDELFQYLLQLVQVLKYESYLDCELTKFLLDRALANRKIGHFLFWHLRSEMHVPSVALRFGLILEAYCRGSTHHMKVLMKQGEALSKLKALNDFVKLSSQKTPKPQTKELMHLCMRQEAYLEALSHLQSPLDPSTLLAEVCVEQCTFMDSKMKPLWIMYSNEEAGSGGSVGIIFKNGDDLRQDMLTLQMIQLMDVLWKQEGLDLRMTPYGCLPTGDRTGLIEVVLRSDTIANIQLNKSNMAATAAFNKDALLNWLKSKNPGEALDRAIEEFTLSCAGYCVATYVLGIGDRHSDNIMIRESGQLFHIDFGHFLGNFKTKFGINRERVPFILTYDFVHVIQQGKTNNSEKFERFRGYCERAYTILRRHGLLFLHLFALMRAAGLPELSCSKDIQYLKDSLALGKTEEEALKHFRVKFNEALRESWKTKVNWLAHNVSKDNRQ
# Sequence (P27986 whole entry partner): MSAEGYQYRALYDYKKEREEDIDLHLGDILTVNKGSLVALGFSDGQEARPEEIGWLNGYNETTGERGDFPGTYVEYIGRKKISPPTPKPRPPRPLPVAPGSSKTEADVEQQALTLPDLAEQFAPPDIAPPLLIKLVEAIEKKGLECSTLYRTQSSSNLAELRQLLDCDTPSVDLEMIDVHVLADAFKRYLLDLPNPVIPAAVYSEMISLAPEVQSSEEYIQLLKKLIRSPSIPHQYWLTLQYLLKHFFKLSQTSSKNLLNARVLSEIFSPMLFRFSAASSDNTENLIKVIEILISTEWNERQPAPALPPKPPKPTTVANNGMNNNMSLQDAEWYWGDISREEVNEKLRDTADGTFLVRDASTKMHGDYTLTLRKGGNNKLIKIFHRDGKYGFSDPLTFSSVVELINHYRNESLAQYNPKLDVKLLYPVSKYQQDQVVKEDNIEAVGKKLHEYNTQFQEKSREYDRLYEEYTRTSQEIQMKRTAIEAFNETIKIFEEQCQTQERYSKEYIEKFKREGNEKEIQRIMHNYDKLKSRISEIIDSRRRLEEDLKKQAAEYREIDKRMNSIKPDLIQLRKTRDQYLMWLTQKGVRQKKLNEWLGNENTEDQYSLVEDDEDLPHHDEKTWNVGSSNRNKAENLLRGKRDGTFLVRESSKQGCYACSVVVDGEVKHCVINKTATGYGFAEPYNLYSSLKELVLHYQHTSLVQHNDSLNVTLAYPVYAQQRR
# METHOD_DESCRIPTION: Transcreener KINASE Assay, kinase inhibition of p110δ/p85α
# PARTICULARS: read-out: PI3Kδ IC50
pIC50: −log10 of the molar value.
MEASURE: pIC50

Examples with their reported pIC50 follow.
N#Cc1c[nH]c2ncnc(N3CCC[C@H]3c3nn4ccc(Cl)c4c(=O)n3Cc3ncccn3)c12    7.64
COc1ccc(-c2c[nH]c3ncnc(N4CC[C@H]4c4nn5ccc(Cl)c5c(=O)n4-c4ccccc4)c23)cn1    9.00
Cc1nc(N)nc(N2C[C@H](C)[C@H]2c2nn3ccc(Cl)c3c(=O)n2-c2ccccn2)c1C#N    9.00
N#Cc1c[nH]c2ncnc(N3CCCC3c3cn4ccc(Cl)c4c(=O)n3-c3ccccc3)c12 (centres unmarked)    8.70
C[S@+]([O-])c1c[nH]c2ncnc(N3CCC[C@H]3c3nn4ccc(Cl)c4c(=O)n3-c3cccc(F)c3)c12 (single isomer, unassigned)    8.52

I. O=c1c2c(Cl)ccn2nc([C@@H]2CCCN2c2ncnc3[nH]cnc23)n1Cc1ncccn1
II. CC(=O)c1cnc(N)nc1N1CCC1c1nn2ccc(Cl)c2c(=O)n1-c1ccccn1 (centres unmarked)
INPUT: Just tell me: smaller pIC50 value, I or II ? Provide the label of your selected option as the answer.
OUTPUT: I

###

# EXPERIMENTAL_SYSTEM: p110γ (Homo sapiens, UniProt P48736)
# Sequence (P48736 whole entry): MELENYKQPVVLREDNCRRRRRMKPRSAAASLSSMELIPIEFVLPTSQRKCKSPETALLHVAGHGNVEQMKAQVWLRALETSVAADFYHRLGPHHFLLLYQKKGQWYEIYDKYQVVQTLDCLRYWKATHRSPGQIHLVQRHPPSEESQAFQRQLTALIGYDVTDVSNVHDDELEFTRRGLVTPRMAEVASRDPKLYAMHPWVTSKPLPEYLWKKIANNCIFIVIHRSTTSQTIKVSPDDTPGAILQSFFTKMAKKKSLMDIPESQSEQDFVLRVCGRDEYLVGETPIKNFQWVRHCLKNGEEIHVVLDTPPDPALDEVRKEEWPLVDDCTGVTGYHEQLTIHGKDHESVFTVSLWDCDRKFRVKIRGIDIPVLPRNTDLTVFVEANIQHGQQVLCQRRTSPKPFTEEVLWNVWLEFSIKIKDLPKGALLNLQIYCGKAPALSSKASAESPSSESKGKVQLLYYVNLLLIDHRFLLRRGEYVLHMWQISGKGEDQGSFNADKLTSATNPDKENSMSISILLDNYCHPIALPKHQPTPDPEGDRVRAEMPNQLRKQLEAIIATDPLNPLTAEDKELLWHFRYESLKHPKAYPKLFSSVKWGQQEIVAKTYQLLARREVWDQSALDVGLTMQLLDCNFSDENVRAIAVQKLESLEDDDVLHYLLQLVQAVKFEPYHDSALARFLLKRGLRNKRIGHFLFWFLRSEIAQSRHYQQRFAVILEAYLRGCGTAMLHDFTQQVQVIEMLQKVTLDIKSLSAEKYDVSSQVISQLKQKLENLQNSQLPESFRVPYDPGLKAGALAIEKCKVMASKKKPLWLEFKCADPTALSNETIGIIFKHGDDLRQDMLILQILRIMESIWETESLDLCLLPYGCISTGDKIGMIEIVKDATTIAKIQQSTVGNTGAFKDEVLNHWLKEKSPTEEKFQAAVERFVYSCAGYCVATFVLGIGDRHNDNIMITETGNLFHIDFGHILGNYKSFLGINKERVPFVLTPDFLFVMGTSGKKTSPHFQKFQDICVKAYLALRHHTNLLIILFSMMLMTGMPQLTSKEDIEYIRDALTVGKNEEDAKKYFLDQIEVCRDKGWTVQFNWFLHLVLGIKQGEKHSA
# METHOD_DESCRIPTION: Transcreener KINASE Assay, kinase inhibition of p110γ
# Format: biochemical
# PARTICULARS: 1 uM test compound
MEASURE: PI3Kγ IH % @ 1 uM

CC(Nc1ncnc(N)c1C#N)c1cc2c(Cl)cc(Cl)n2c(=O)n1-c1ccccc1 (stereo not drawn) [Compound 126]    >100%
C[C@H]1CN(c2nc(N)nc(N)c2C#N)[C@@H]1c1nn2ccc(Cl)c2c(=O)n1-c1ccccc1 [Compound 481]    >100%

Next up:
INPUT: Answer with the recorded PI3Kγ IH % @ 1 uM of O=c1c2c(Cl)ccn2nc([C@@H]2CCCN2c2ncnc3[nH]cnc23)n1-c1ccncn1 [Compound 344] only.
OUTPUT: 85.5%

###

# EXPERIMENTAL_SYSTEM: p110γ (Homo sapiens)
# METHOD_DESCRIPTION: Transcreener KINASE Assay, kinase inhibition of p110γ
# Type: biochemical
# PARTICULARS: 1 uM test compound
MEASURE: PI3Kγ IH % @ 1 uM (%)

CC(Nc1ncnc2[nH]cc(F)c12)c1cc2ncc(Cl)n2c(=O)n1-c1ccccc1 (single isomer, unassigned) [Compound 450]    98.6
O=c1c2c(Cl)ccn2nc([C@@H]2CCN2c2ncnc3[nH]cnc23)n1-c1ccccc1    72.5

###

# EXPERIMENTAL_SYSTEM: p110γ (Homo sapiens)
MEASURE: IC50 (nM)

Examples with their reported IC50 follow.
N#Cc1c[nH]c2ncnc(N3CCC[C@H]3c3nn4ccc(C5CC5)c4c(=O)n3-c3ccccc3)c12    107
Cc1ccn2cc(C(C)Nc3ncnc(N)c3C#N)n(-c3ccccc3)c(=O)c12 (stereo not shown)    34

1. O=c1c2c(F)ccn2nc([C@@H]2CCCN2c2ncnc3[nH]cnc23)n1-c1cccc(F)c1
2. N#Cc1c[nH]c2ncnc(N3CCC[C@H]3c3nn4ccc(Cl)c4c(=O)n3Cc3ccccn3)c12
3. O=c1c2c(Cl)ccn2nc([C@@H]2C[C@H](OCCO)CN2c2ncnc3[nH]cnc23)n1-c1ccccc1
INPUT: Put the entries in order of IC50, starting with the largest number. Could you list the labels in the order requested?
OUTPUT: 2, 1, 3
(2: 78 nM, 1: 32 nM, 3: 11 nM)

I. Nc1nc2c(c(N3CCC[C@H]3c3nn4ccc(Cl)c4c(=O)n3-c3ccccc3)n1)CCC2
II. COCCO[C@H]1C[C@@H](c2nn3ccc(Cl)c3c(=O)n2-c2ccccc2)N(c2ncnc3[nH]cnc23)C1
III. Cc1ccn2nc([C@@H]3CCCN3c3ncnc4[nH]cc(C#N)c34)n(-c3ccccc3)c(=O)c12
IV. CS(=O)(=O)c1c[nH]c2ncnc(N3CCC[C@H]3c3nn4ccc(Cl)c4c(=O)n3-c3ccccc3)c12
V. N#Cc1c[nH]c2ncnc(N3CC(F)(F)C[C@H]3c3nn4ccc(Cl)c4c(=O)n3-c3ccccc3)c12
INPUT: Put the entries in order of IC50, starting with the largest number. Could you list the labels in the order requested?
OUTPUT: I, V, IV, II, III
(I: 696 nM, V: 73 nM, IV: 44 nM, II: 21 nM, III: 5 nM)

I. C[S@+]([O-])c1c[nH]c2ncnc(N3CCC[C@H]3c3nn4ccc(Cl)c4c(=O)n3-c3ccccc3)c12
II. N#Cc1c[nH]c2ncnc(N3C[C@@H](F)C[C@H]3c3nn4ccc(Cl)c4c(=O)n3-c3ccccn3)c12
III. CC(C)Cn1c([C@@H]2CCCN2c2ncnc3[nH]cc(C#N)c23)nn2c(F)ccc2c1=O
INPUT: Put the entries in order of IC50, starting with the largest number. Could you list the labels in the order requested?
OUTPUT: III, I, II
